System: Yap1 mRNA
assay.summary: Antisense inhibition of human Yap1 in A-431 cells by cEt gapmers, single dose (Example 2, RTS4814)
Assay type: cell-based
experimental.context: Table 25; Yap1 mRNA as percent of untreated control; 3-10-3 cEt gapmers targeting SEQ ID NO.: 1, and 2
Procedure: Modified oligonucleotides were designed to target a Yap1 nucleic acid and were tested for their effect on Yap1 mRNA level in vitro. The modified oligonucleotides were tested in a series of experiments that had similar culture conditions. […] After a treatment period of approximately 48 hours, RNA was isolated from the cells and Yap1 mRNA levels were measured by quantitative real-time RTPCR. […] Yap1 mRNA levels were normalized to total RNA content, as measured by RIBOGREEN®. […]
Strand notation (5' to 3'): a small letter for the sugar, then the base; units joined by * are phosphorothioate-linked, units joined directly phosphodiester-linked; [ ] holds rarer units or linkages, { } end groups; capitals alone tell only the bases. k = constrained ethyl (cEt); [5mC] = 5-methylcytosine; d = 2'-deoxy (DNA)
measurement.label: YAP1 (% UTC)

Query: I would be grateful if you could share the reported YAP1 (% UTC) for 1074187 (antisense k[5mC]*kT*kG*d[5mC]*dG*dA*dA*dG*dG*d[5mC]*dG*dG*d[5mC]*kT*kG*k[5mC]) [Compound 1074187] .
Response: 47 % UTC

Query: I would be grateful if you could share the reported YAP1 (% UTC) for 1076267 (kA*kT*kT*dT*dA*dA*dG*dG*dT*dG*d[5mC]*dA*dT*kA*kA*kG; antisense) [Compound 1076267] .
Response: 13 % UTC

Query: I would be grateful if you could share the reported YAP1 (% UTC) for 1076139 (k[5mC]*kG*kA*dA*dA*dA*dA*dA*dG*d[5mC]*d[5mC]*dA*dA*k[5mC]*kA*kA; antisense) [Compound 1076139] .
Response: 18 % UTC

Query: I would be grateful if you could share the reported YAP1 (% UTC) for 1075211 (antisense kA*kA*kT*dA*dA*dA*dG*dG*dG*dT*d[5mC]*d[5mC]*dT*kA*kA*k[5mC]) [Compound 1075211] .
Response: 91 % UTC

----------
assay.summary: Cynomolgus monkey tolerability, coagulation (Example 34)
Format: in vivo
experimental.context: cynomolgus monkeys, 35 mg/kg subcutaneously, day 44
Recorded FIB by entry
API: value field is a number in mg/dL; no unit string.

The following substances have reported results that may help.
1198440 (AAGTGTATGTCAGAAG; cEt, 2'-MOE, 5-methylcytosine, phosphorothioate modifications, further chemistry not given here) [compound 1198440] = 260
1198439 (AGTGTATGTCAGAAGA; sugar, 5-methylcytosine, phosphorothioate modifications, further chemistry not given here) [compound 1198439] = 246

Query: I would be grateful if you could share the reported FIB for 1198831 (CACTTTTACATTAGGA; chemically modified gapmer, further chemistry not given here) [compound 1198831] .
Response: 209

----------
Recorded % UTC (Yap1 mRNA) by entry
Test system: Yap1 mRNA
assay.summary: Dose-dependent inhibition of human Yap1 in A-431 cells (Example 8, 10,000 cells per well, RTS4814)
Assay type: cell-based
experimental.context: 500.0 nM; A-431 cells
Procedure: Modified oligonucleotides described in the studies above were tested at various doses in A-431 cells. […] After approximately 48 hours, Yap1 mRNA levels were measured as previously described using the Human Yap1 primer-probe set RTS4814. Yap1 mRNA levels were normalized to total RNA content, as measured by RIBOGREEN®. […] IC50s were calculated using a linear regression on a log/linear plot of the data in excel.
Strand notation (5' to 3'): a small letter for the sugar, then the base; units joined by * are phosphorothioate-linked, units joined directly phosphodiester-linked; [ ] holds rarer units or linkages, { } end groups; capitals alone tell only the bases. k = constrained ethyl (cEt); [5mC] = 5-methylcytosine; d = 2'-deoxy (DNA)
API: value field is a number in % UTC; no unit string.

The following substances have reported results that may help.
1076183 (k[5mC]*kT*kT*d[5mC]*dT*dA*dT*dA*dA*dT*dT*dA*dG*k[5mC]*k[5mC]*kA; antisense) [compound 1076183] = 9
1074453 (kG*kT*kG*dA*d[5mC]*dT*dA*dA*dT*dG*dA*dT*dA*kG*k[5mC]*kA; antisense) [compound 1074453] = 9
1076085 (kA*k[5mC]*kT*dA*dA*dT*dA*dG*dG*d[5mC]*d[5mC]*dA*dT*k[5mC]*kT*kG; antisense) [compound 1076085] = 14
1074678 (antisense kT*kA*kA*dT*d[5mC]*dT*dG*dT*dG*dG*d[5mC]*dT*dA*k[5mC]*kT*kG) [compound 1074678] = 16
1074454 (kT*kG*kT*dG*dA*d[5mC]*dT*dA*dA*dT*dG*dA*dT*kA*kG*k[5mC]; antisense) [compound 1074454] = 3
1074487 (kA*kG*kA*dT*dT*d[5mC]*dA*d[5mC]*dT*dA*dA*dT*dA*kT*kG*kG; antisense) [compound 1074487] = 11
1074775 (kG*kG*kT*dT*dT*dA*dT*dT*dG*dT*dA*dA*dA*kA*kG*k[5mC]; antisense) [compound 1074775] = 2
1074549 (DNA kT*kA*kT*d[5mC]*dT*dA*d[5mC]*d[5mC]*dG*dT*dA*dT*dG*k[5mC]*k[5mC]*k[5mC]; antisense) [compound 1074549] = 12
1076406 (antisense kA*kT*kT*dA*dT*dT*dT*dA*dA*dG*dA*d[5mC]*d[5mC]*kT*kG*kG) [compound 1076406] = 9
1076084 (k[5mC]*kA*kT*d[5mC]*dA*dA*dT*dA*dG*dA*dG*dA*dG*kT*k[5mC]*kG; antisense) [compound 1076084] = 12

Query: I would be grateful if you could share the reported % UTC (Yap1 mRNA) for 1075093 (k[5mC]*kA*kA*dA*dG*dT*dA*dA*dG*dG*dT*dA*dT*kG*kA*kG; antisense) [compound 1075093] .
Response: 7

Query: I would be grateful if you could share the reported % UTC (Yap1 mRNA) for 1074485 (kT*kT*k[5mC]*dA*d[5mC]*dT*dA*dA*dT*dA*dT*dG*dG*kT*k[5mC]*kA; antisense) [compound 1074485] .
Response: 5

Query: I would be grateful if you could share the reported % UTC (Yap1 mRNA) for 1075766 (kG*kG*kA*dG*dA*dA*d[5mC]*dA*d[5mC]*dA*dA*dG*dA*kG*kG*k[5mC]; antisense) [compound 1075766] .
Response: 11

----------
assay.summary: Cynomolgus monkey tolerability, hematology (Example 34)
Assay type: in vivo, cynomolgus monkeys
experimental.context: cynomolgus monkey, in vivo, sc, 35 mg/kg
measurement.label: LUC (%)
API: value field is a number in %; no unit string.

The following substances have reported results that may help.
1198623 (CTAAGTAAGGTTTCCC; modified gapmer, further chemistry not given here) [compound 1198623] = 0.7
1198831 (CACTTTTACATTAGGA; chemically modified gapmer, further chemistry not given here) [compound 1198831] = 0.8
1198440 (AAGTGTATGTCAGAAG; cEt, 2'-MOE, 5-methylcytosine, phosphorothioate modifications, further chemistry not given here) [compound 1198440] = 0.7
1198872 (TGTATGTCAGAAGAGT; chemically modified gapmer, further chemistry not given here) [compound 1198872] = 0.5

Query: I would be grateful if you could share the reported LUC for 1197270 (TTAAAGTGTATGTCAG; cEt gapmer with 2'-OMe nucleoside, phosphorothioate, further chemistry not given here) [compound 1197270] .
Response: 1.2

----------
Tested on: Yap1 mRNA
assay.summary: Dose-dependent inhibition of human Yap1 in A-431 cells (Example 7, 10,000 cells per well, RTS36584)
Type: cell-based
experimental.context: 15.6 nM, A-431 cells, 10,000 cells per well, free uptake, approximately 48 hours
Strand notation (5' to 3'): a small letter for the sugar, then the base; units joined by * are phosphorothioate-linked, units joined directly phosphodiester-linked; [ ] holds rarer units or linkages, { } end groups; capitals alone tell only the bases. k = constrained ethyl (cEt); [5mC] = 5-methylcytosine; d = 2'-deoxy (DNA)
Recorded Yap1 mRNA, % UTC by entry
API: value field is a number in % UTC; no unit string.

The following substances have reported results that may help.
715487 (kA*kT*kT*dA*d[5mC]*dT*dT*d[5mC]*dA*dT*dA*dG*d[5mC]*kT*kT*kA) [compound 715487] = 77
958730 (k[5mC]*kT*k[5mC]*dT*dG*dT*d[5mC]*dA*dG*dT*dT*dA*dT*k[5mC]*k[5mC]*kT; antisense) [compound 958730] = 88
958805 (k[5mC]*kA*kA*dG*dA*dT*dA*dA*dT*d[5mC]*dA*dT*d[5mC]*k[5mC]*kT*k[5mC]; antisense) [compound 958805] = 90

Query: I would be grateful if you could share the reported Yap1 mRNA, % UTC for 958545 (kA*k[5mC]*kT*d[5mC]*dT*dA*dG*dT*dT*dA*d[5mC]*dA*dT*k[5mC]*kA*kT; antisense) [compound 958545] .
Response: 75

Query: I would be grateful if you could share the reported Yap1 mRNA, % UTC for 958540 (kA*kT*kT*d[5mC]*dT*dA*dT*d[5mC]*d[5mC]*dA*dG*dG*dG*kT*k[5mC]*kA; antisense) [compound 958540] .
Response: 62

Query: I would be grateful if you could share the reported Yap1 mRNA, % UTC for 958544 (kG*k[5mC]*kT*dA*dA*dA*dT*dT*d[5mC]*dA*dA*d[5mC]*dT*kA*k[5mC]*k[5mC]; antisense) [compound 958544] .
Response: 65

Hello, the source for this data is patent US11214803B2, in case you need it.
